Format: physicochemical
assay.setup: stored at room temperature (21-25° C.), day 90
Exercise: for every item that follows, state its recorded Stability in Powder Concentrate (content by LCMSMS).
A number alone suffices; assume mg/g powder.

[ask] For the molecule shown here, C=C(C)[C@@H]1CCC(C)=C[C@H]1c1c(O)cc(CCCCC)cc1O [CBD, cannabidiol, reference compound] , give the reported Stability in Powder Concentrate (content by LCMSMS).
[reply] 6.00

[ask] Now consider CC(=O)Oc1c(C)c(C)c2c(c1C)CCC(C)(CCC[C@H](C)CCC[C@H](C)CCCC(C)C)O2 (stereo partly drawn) [α-Tocopheryl acetate] and answer again.
[reply] 2.24

[ask] Subsequent entry: C=C(C)[C@@H]1CCC(C)=C[C@H]1c1c(O)cc(CCC)cc1O
[reply] 0.050

[ask] Can you check CCCCCc1cc(O)c2c(c1)OC(C)(C)[C@@H]1CCC(C)=C[C@@H]21 [D9 THC, delta-9-tetrahydrocannabinol, reference compound] next?
[reply] 2.49

[ask] Could you do the same for C=C(C)[C@@H]1CCC(C)=C[C@H]1c1c(O)cc(CCCCC)c(C(=O)O)c1O , please?
[reply] 0.413

[ask] Item: Cc1c(C)c2c(c(C)c1O)CC[C@@](C)(CCC[C@H](C)CCC[C@H](C)CCCC(C)C)O2
[reply] 4.96

[ask] And then CCCc1cc(O)c2c(c1)OC(C)(C)[C@@H]1CCC(C)=C[C@@H]21 [THCV, delta-9-tetrahydrocannabivarin] , what is it?
[reply] 0.707

* * *

protocol.summary: Stability of cannabinoid and Vitamin E components of Beverage 1 (AB White) stored at 8° C. and 21-25° C., LCMSMS over 570 days
Format: physicochemical
assay.setup: beverage stored at 8° C., day 23
endpoint: Stability in AB White, 8° C. (content by LCMSMS) (µg/mL)
All answers are understood in µg/mL, so give the number only.

[ask] I am curious: what Stability in AB White, 8° C. (content by LCMSMS) value has been reported for CCCCCc1cc2c(c(O)c1C(=O)O)[C@@H]1C=C(C)CC[C@H]1C(C)(C)O2 [D9 THCA, delta-9-tetrahydrocannabinolic acid] ?
[reply] 0.931

[ask] Would you kindly repeat that for C=C(C)[C@@H]1CCC(C)=C[C@H]1c1c(O)cc(CCCCC)cc1O [CBD, cannabidiol, reference compound] ?
[reply] 27.67

[ask] Try the compound CCCCCc1cc(O)c2c(c1)OC(C)(C)[C@@H]1CCC(C)=C[C@@H]21 [D9 THC, delta-9-tetrahydrocannabinol, reference compound]
[reply] 12.03

[ask] Similarly, C=C(C)[C@@H]1CCC(C)=C[C@H]1c1c(O)cc(CCCCC)c(C(=O)O)c1O ?
[reply] 1.76

[ask] Thanks! And CCCCCc1cc(O)c2c(c1)OC(C)(C)c1ccc(C)cc1-2 ?
[reply] 2.71

[ask] Input CCCCCc1cc(O)c2c(c1)OC(C)(CCC=C(C)C)C=C2 (stereo not shown)
[reply] 0.321

[ask] Check CCCc1cc(O)c2c(c1)OC(C)(C)[C@@H]1CCC(C)=C[C@@H]21 [THCV, delta-9-tetrahydrocannabivarin] too.
[reply] 3.55

[ask] Next record, please: C=C(C)[C@@H]1CCC(C)=C[C@H]1c1c(O)cc(CCC)cc1O
[reply] 0.149

[ask] Same again, this time with CCCCCc1cc(O)c2c(c1)OC1(C)CCC3C1C2C3(C)C (stereo not shown)
[reply] 0.545

[ask] Please do the same for CCCCCc1cc(O)c(C/C=C(\C)CCC=C(C)C)c(O)c1 as well.
[reply] 4.89

Numbers sourced from patent US20240415914A1.
